test.target: acetylcholine muscarinic M1 receptor (Homo sapiens)
Construct: b382 calls them CHOK1/hM1
Sequence (P11229 1-460): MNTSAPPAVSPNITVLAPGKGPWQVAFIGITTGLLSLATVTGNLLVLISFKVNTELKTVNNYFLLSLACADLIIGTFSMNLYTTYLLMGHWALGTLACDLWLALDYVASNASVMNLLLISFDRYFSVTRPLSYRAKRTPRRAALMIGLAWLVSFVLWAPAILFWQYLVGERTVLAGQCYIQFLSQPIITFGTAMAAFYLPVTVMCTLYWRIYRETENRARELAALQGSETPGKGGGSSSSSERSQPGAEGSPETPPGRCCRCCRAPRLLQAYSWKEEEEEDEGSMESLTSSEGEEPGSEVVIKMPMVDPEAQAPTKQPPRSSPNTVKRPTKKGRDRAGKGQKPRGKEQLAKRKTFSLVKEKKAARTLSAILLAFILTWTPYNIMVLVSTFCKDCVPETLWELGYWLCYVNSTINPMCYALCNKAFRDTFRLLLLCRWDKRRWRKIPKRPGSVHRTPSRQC
protocol.text: muscarinic FLIPR intracellular calcium assay, potentiation of EC20 acetylcholine in CHOnfat/hM1 cells
protocol.conditions: inflection point calculated from FLIPR values, 4 min preincubation, then EC20 acetylcholine (3 nM final), read-out: IP Value
Protocol: The assay studies the effect of one or several concentrations of test compounds on basal or acetylcholine-stimulated Ca^2+ levels using FLIPR. Compounds are prepared and subjected to a preincubation period of 4 min. Thereafter, a single EC20 concentration of acetylcholine is added to each well (3 nM final). The intracellular Ca^2+ level of each sample is measured and compared to an acetylcholine control to determine any modulatory activity. […]
assay.metric: EC50 (nM)
Answers are plain numbers, in nM.

// worked examples, EC50 included
[
  {
    "structure.as.smiles": "O=c1c2cc(Cc3ccc(Cl)nc3)c3ccccc3c2ncn1[C@H]1CCSC[C@@H]1O",
    "EC50 [nM]": 10
  },
  {
    "structure.as.smiles": "O=c1c2cc(Cc3ccc(C(F)F)nc3)c3ccccc3c2ncn1[C@H]1CCOC[C@@H]1O",
    "EC50 [nM]": 14
  },
  {
    "structure.as.smiles": "O=c1c2cc(Cc3ccc(O)nc3)c3ccccc3c2ncn1[C@H]1CCOC[C@@H]1O",
    "EC50 [nM]": 27
  },
  {
    "structure.as.smiles": "Cn1cc(Br)c2c(Cc3cc4c(=O)n([C@H]5CCOC[C@@H]5O)cnc4c4ccccc34)ccnc21",
    "EC50 [nM]": 275
  },
  {
    "structure.as.smiles": "O=c1c2cc(Cc3ccc(Cl)nc3)c3ccccc3c2ncn1C1CCNCC1",
    "EC50 [nM]": 4800
  }
]

// each listed compound needs a value for EC50
1. CC(=O)c1ccc(Cc2cc3c(=O)n([C@H]4CCOC[C@@H]4O)cnc3c3ccccc23)cn1
2. Cc1ccc(Cc2cc3c(=O)n([C@H]4CCOC[C@@H]4O)cnc3c3ccccc23)cn1

**A:**
[30, 15]

**Q:** Input "Cn1cc(-c2ccc(Cc3cc4c(=O)n([C@H]5CCOC[C@@H]5O)cnc4c4ccccc34)cn2)cn1" , output reported EC50.
**A:** 2.5
